Tested on: DeltatarO mutant
Protocol Details: S. aureus survival, RN4220 and DeltatarO strains – OD600, teichoic acid synthesis inhibitors, primary screen (AID 463173)
Protocol Conditions: S. aureus RN4220 wild type/DeltatarO growth, OD600, 18 h, screened at 18.75 µg/mL (by protocol)
In all, about 52,000 compounds went through this assay and about 4,300 (8.3%) were called active. Cut-off read from the data, not from the text of the source: active = survival mostly below about 52% (no sharp cut-off); inactive = mostly above about 56%. The entries come from a sample that favours actives as a whole.
One label from this list, please: active, inactive

Problem: Tell me the assay call for COc1ccccc1OCCSc1nc(-c2ccc(C(C)(C)C)cc2)nc2cc(=O)[nH]n12 please.
Solution: inactive

Problem: GET /call?item= Cc1nc(C)c(CCNS(=O)(=O)c2ccc(C)c(C)c2)s1 returns the recorded outcome of this test.
Solution: inactive

Problem: Which result was noted for this compound in the test: Cn1c(=O)c2c(nc(SCC(=O)Nc3ccc(F)c(F)c3)n2Cc2ccccc2F)n(C)c1=O
Solution: inactive

Problem: Per the records of this test, what outcome belongs to C=CCc1ccccc1OCCSc1nc(-c2ccc(C(C)(C)C)cc2)nc2cc(=O)[nH]n12 ?
Solution: active

Problem: # fetch the recorded call for CCc1ccc(NC(=O)Cn2c(=O)n(CCCCC(=O)NCCc3ccccc3)c(=O)c3ccccc32)cc1 here
Solution: inactive

Problem: What did this assay record as the result for COc1ccc2oc(=O)c(-c3nc(-c4cccs4)no3)cc2c1 ?
Solution: inactive

---
Problem: Per the records of this test, what outcome belongs to Cc1ccc(C(=O)CSc2nnc(CSc3nc(C)cc(C)n3)n2C)cc1 ?
Solution: inactive

Problem: Test call for this compound, please: CCc1nnc2n1N(C(C)=O)C(c1ccc(C(C)(C)C)cc1)=C(C(C)=O)S2
Solution: inactive

Problem: # outcome recorded in this test, key = COc1ccc(-c2noc(C3CC(=O)N(c4ccc5c(c4)OCCO5)C3)n2)c(OC)c1 (stereo not given)
Solution: inactive

Problem: Per the records of this test, what outcome belongs to COc1cccc(C2C(C(=O)Nc3cccnc3)=C(C)Nc3nc(SCc4ccccc4)nn32)c1 (stereo not given) ?
Solution: inactive

Problem: Kindly provide the recorded test outcome for the following compound: Clc1ccc(Nc2c(-c3ccccc3Cl)nc3ccc(Cl)cn23)cc1
Solution: inactive

Problem: Per the records of this test, what outcome belongs to COc1cccc(NC(=O)c2cc3c(=O)n(Cc4cccnc4)ccc3nc2C)c1 ?
Solution: inactive

Problem: Tell me the recorded outcome of this test for CCOc1ccc(CNC(=O)c2cc3c(=O)n(Cc4cccs4)ccc3nc2C)cc1 .
Solution: inactive

###

Consider the following compounds; for each one, report its survival.
Tested on: DeltatarO mutant
Protocol Details: S. aureus survival, RN4220 and DeltatarO strains – OD600, teichoic acid synthesis inhibitors, primary screen (AID 463173)
Protocol Conditions: S. aureus RN4220 wild type/DeltatarO growth, OD600, 18 h, active compounds read low, screened at 18.75 µg/mL (by protocol)
Hit rate of the full screen: of about 52,000 compounds, about 4,300 (8.3%) were called active. This is one part of a sample in which actives are shown more often than they occur.
Answers are plain numbers, in %.

Known results for compounds:
Summary line: Cc1csc2nc(-c3cccc(NC(=O)c4ccccc4F)c3)cn12 , DeltatarO mutant, reported survival = 126

Entry COc1ccc(-c2nn(-c3ccccc3)cc2C2NC(=O)NC(C)=C2C(=O)OC(C)C)cc1Cl (stereo not given) , tested on DeltatarO mutant, has a reported survival of 106

The compound CC1=C(C(=O)Nc2ccccc2C)C(c2cccnc2)n2nc(SCc3ccccc3F)nc2N1 (stereo not given) , when measured on DeltatarO mutant, yielded survival of 60

DeltatarO mutant assay, compound Cc1ccc(-n2c(=O)c3ccccc3n(CC(=O)Nc3cccc(C(F)(F)F)c3)c2=O)cc1 , recorded survival = 63

Could you report survival for every entry in the following list?
1. COc1ccc(F)cc1NC(=O)C1CCN(c2nc(-c3ccc(OC)c(OC)c3)no2)CC1
2. Cc1ccc(C)c(Nc2cc(C(=O)NC3CCCC3)c3ccccc3n2)c1
3. CCOc1ccc(NC(=O)c2c(NCc3cccs3)sc3c2CCC(C)C3)cc1 (stereo not given)
4. CCC1CN(C(=O)N2CCC(C(=O)N3CCN(c4ccccc4F)CC3)CC2)c2ccccc2O1 (stereo not given)
5. O=C(Nc1cccc(NC(=O)c2ccccc2F)c1)c1ccccc1
6. Cc1ccc(NC(=O)c2ccco2)c(OCc2cc(=O)n3cc(C)sc3n2)c1

Solution:
[48, 87, 129, 97, 77, 102]

###

Tested on: DeltatarO mutant
Protocol Details: S. aureus survival, RN4220 and DeltatarO strains – OD600, teichoic acid synthesis inhibitors, primary screen (AID 463173)
Protocol Conditions: S. aureus RN4220 wild type/DeltatarO growth, OD600, 18 h, active compounds read low, screened at 18.75 µg/mL (by protocol)
Among all 52,000 compounds or so, about 4,300 (8.3%) were called active. Shown is part of a subset that was picked to be rich in actives.
Measurement Type: survival (%)
Numbers only, in %.

Entry CCN1CCN(Cc2c(O)ccc3oc(C)c(C(=O)Nc4ccc(OC)c(Cl)c4)c23)CC1 — recorded survival = 66

So for COc1ccc(NC(=O)c2c(C)oc3ccc(O)c(CN4CCCC(C)C4)c23)cc1 (stereo not given) , the logged survival turned out to be 87

Kindly note the recorded survival for COc1ccc(NC(=O)c2c(C)oc3ccc(O)c(CN4CCCC(C)C4)c23)cc1Cl (stereo not given) , which is 52

survival for COc1ccccc1N1CCN(CCCNC(=O)Cn2ncc3c([nH]c4ccccc43)c2=O)CC1 is 55

As a next step, examine the molecule that follows.
GET /value?item= Cc1ccc(CN(Cc2ccco2)C(=O)c2ccccc2Br)o1 &field=survival returns 47

###

Tested on: DeltatarO mutant
Protocol Details: S. aureus survival, RN4220 and DeltatarO strains – OD600, teichoic acid synthesis inhibitors, primary screen (AID 463173)
Protocol Conditions: S. aureus RN4220 wild type/DeltatarO growth, OD600, 18 h, active compounds read low, screened at 18.75 µg/mL (by protocol)
The campaign covered roughly 52,000 compounds. About 4,300 (8.3%) were called active. The sample holds actives, similar compounds and a random draw of the others, so the mix is not that of the screen.
Binary call on survival with cut-off 70%: strictly below means true (1), and equality or higher means false (0).

Study these solved cases before continuing.
Problem: Is the reported survival for Cc1nn(C(=O)c2cccc([N+](=O)[O-])c2C)c(C)c1S(=O)(=O)N1CCOCC1 strictly below 70%?
Solution: false (0)

Problem: Determine whether this molecule shows survival lower than 70% (ties excluded): Cc1nn(S(=O)(=O)c2ccc(F)cc2)c(C)c1S(=O)(=O)N1CCC(C)CC1
Solution: true (1)

Please examine the following record next.
Problem: Lab note: confirm whether the reported survival for this molecule is below 70%, equality not counting. molecule: Cc1nn(C(=O)c2cccc([N+](=O)[O-])c2C)c(C)c1S(=O)(=O)N1CCCCCC1
Solution: true (1)

###

Test system: DeltatarO mutant
Protocol Details: S. aureus survival, RN4220 and DeltatarO strains – OD600, teichoic acid synthesis inhibitors, primary screen (AID 463173)
Protocol Conditions: S. aureus RN4220 wild type/DeltatarO growth, OD600, 18 h, active compounds read low, screened at 18.75 µg/mL (by protocol)
About 4,300 (8.3%) of roughly 52,000 compounds were called active. Many of the other results were omitted from the sample, so actives are more common in it than they were.
Give measured survival for each item. Keep answers brief.
Answers are plain numbers, in %.

Sample CCCn1c(=O)sc2cc(NC(=O)c3ccccc3OCC)ccc21 ; survival observed: 93

// recorded survival for NC(=O)CN(c1ccccc1)C1SC(=O)NC1=O (configuration not stated) : 76

// recorded survival for Cc1c(Cl)cccc1NC(=O)c1cccc(NC(=O)N2CCSc3ncccc32)c1 : 80

In plain terms, CCCCNS(=O)(=O)c1ccc(NC(=O)c2c(-c3ccccc3)noc2C)cc1 has a documented survival of 101

Record summary for Cc1cccc(NC(=O)Cn2c(=O)sc3ccccc32)c1 : reported survival = 109

# survival of CCOCCCn1c(SCC(=O)NCCCOC)nc2c(sc3ccccc32)c1=O = 126

Field survival (entry CCOC(=O)Cn1c(=O)sc2ccccc21 ) reads 94

get_value(item= CC(C)CCOc1ccccc1Cn1c(=O)sc2ccccc21 , readout=survival) returns 3

Form: molecule = CCCCOc1ccccc1Cn1c(=O)sc2ccccc21 ; survival = -2

Quick note, survival for CCCOc1ccccc1Cn1c(=O)sc2ccccc21 landed at -2

Dear colleague, could you please provide survival for the molecules listed below?
1. CS(=O)(=O)n1c(=O)sc2ccccc21
2. CCc1ccc(NC(=O)CSc2ccccn2)cc1

Solution:
1: 99; 2: 89

###

For each of the compounds below, state its survival.
System: DeltatarO mutant
Protocol Details: S. aureus survival, RN4220 and DeltatarO strains – OD600, teichoic acid synthesis inhibitors, primary screen (AID 463173)
Protocol Conditions: S. aureus RN4220 wild type/DeltatarO growth, OD600, 18 h, active compounds read low, screened at 18.75 µg/mL (by protocol)
The campaign covered roughly 52,000 compounds. About 4,300 (8.3%) were called active. The sample holds actives, similar compounds and a random draw of the others, so the mix is not that of the screen.
Answers are plain numbers, in %.

Some solved cases for reference:
Value of measured survival for the entry CCOC(=O)c1c(C)n(-c2ccccc2)c2ccc(OC(=O)c3ccccc3NC(=O)C(C)C)cc12 : 47

Record CCOC(=O)c1c(NC(=O)c2ccc(S(=O)(=O)N(C)C)cc2)sc2c1CCN(C)C2 , field survival: 75

# batch: return survival for each of the 8 compounds below
1. CCOC(=O)c1c(C)n(-c2ccccc2)c2ccc(OC(=O)c3cccc(C)c3)cc12
2. CCOC(=O)c1c(C)n(-c2ccccc2)c2ccc(OC(=O)c3ccccc3Cl)cc12
3. CCOC(=O)c1c(C)n(-c2ccccc2)c2ccc(OC(=O)c3ccccc3NC(=O)C(C)(C)C)cc12
4. CCOC(=O)c1c(C)n(-c2ccccc2)c2ccc(OC(=O)c3ccccc3)cc12
5. COc1ccc(NC(=O)Cn2c(C)cc3ccccc3c2=O)c(OC)c1
6. CCCCC(CC)C(=O)Nc1nnc(C(C)C)s1 (stereo not given)
7. COc1ccc(NC(=O)c2sc3nc[nH]c(=O)c3c2C)cc1Cl
8. CC1=C(C(=O)Nc2ccc(F)cc2F)C2(CCCCCC2)OC1=O

Solution:
1. 63
2. 54
3. 55
4. 3
5. 59
6. 91
7. 99
8. 83
